Reported Maximum Neutralization (%) values follow for various binders
- assay system: T1, recombinant human FGFR3 IIIb Fc fusion protein (human, UniProt P22607-2 23-377, limits assumed)
- T1 construct: Bought reagent; the IIIb splice isoform is meant; also called rhFGFR3 IIIb Fc; hFGFR3 IIIb; not shown: Fc fragment (removable by Factor Xa, detected with anti-human IgG)
- T1 sequence (looked up): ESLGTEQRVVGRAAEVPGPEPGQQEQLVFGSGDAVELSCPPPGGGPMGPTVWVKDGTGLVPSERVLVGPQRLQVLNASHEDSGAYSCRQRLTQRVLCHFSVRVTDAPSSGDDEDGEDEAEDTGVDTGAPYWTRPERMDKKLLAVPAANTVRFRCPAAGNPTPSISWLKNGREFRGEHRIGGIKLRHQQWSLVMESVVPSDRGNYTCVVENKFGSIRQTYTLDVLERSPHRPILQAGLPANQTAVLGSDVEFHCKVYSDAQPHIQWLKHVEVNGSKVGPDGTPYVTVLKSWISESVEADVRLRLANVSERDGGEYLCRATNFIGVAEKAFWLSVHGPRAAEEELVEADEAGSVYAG
- assay overview: ECL competition assay: inhibition of rhFGFR3 IIIb Fc binding to coated FGF1 (competitor FGF1)
Give your result in % as a bare value.

Below: 3 binders and their reported Maximum Neutralization (%).
binder	result
anti-FGFR3 monoclonal antibody 27H2 (antibody, mouse IgG1, kappa, V domains shown, Murine IgG1/kappa from hybridoma; also called 27H2 IgG1; murine antibody 27H2) VH: EIQLQQSGPELVKPGASVKVSCKASGYAFTSYNMYWVKQSHGKSLEWIGYIDPYNGGTRYNQKFKGKATMTVDKSSSTAYMHLNSLTSEDSAVYYCAREGGNYEAWFAYWGQGTLVTVSA VL: QIVLTQSPALMSASPGEKVTMTCSASSSVSYMYWYQQKPRSSPKPWIYLTSNLASGVPARFSGSGSGTSYSLTISSMEAEDAATYYCQQWSSNPLTFGAGTKLELKR	99.6
2G4 Fab (Fab, V domains shown, not shown: a dimerising Fc or GST, Fab fragment of murine 2G4; preparation not described; also called anti-FGFR3 Fab fragment 2G4) VH: EIQLQQSGPELVKPGASVKVSCKASGYAFTSYNMYWVKQSHGKSLEWIGYIDPYNGGTRDNQKFKGKATLTVDKSSSTAYMHLNSLTSEDSAVYYCAREGGNYEAWFAYWGQGTLVTVSA VL: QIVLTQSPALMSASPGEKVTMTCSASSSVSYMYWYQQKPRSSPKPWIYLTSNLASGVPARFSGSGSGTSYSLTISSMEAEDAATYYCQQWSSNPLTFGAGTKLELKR	96.2
4E7 Fab (Fab, V domains shown, not shown: a dimerising Fc or GST, Fab fragment of murine 4E7; preparation not described; also called anti-FGFR3 Fab fragment 4E7) VH: EIQLQQSGPELVKPGASVKVSCKASGYAFTSYNMYWVKQSHGKSLEWIGYIDPYNGGTRYNQKFKGKATLTVDKSSSTAYMHLNSLTSEDSAVYYCAREGGNYEAWFAYWGQGTLVTVSA VL: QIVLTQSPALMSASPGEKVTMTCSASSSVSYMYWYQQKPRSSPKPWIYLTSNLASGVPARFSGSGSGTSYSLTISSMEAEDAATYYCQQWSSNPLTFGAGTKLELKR	92.2

Consider the additional binder presented here.
// query Maximum Neutralization (%) value for entry 15D8 Fab (Fab, V domains shown, not shown: a dimerising Fc or GST, Fab fragment of murine 15D8; preparation not described; also called anti-FGFR3 Fab fragment 15D8) VH: EIQLQQSGPELVKPGASVKVSCKASGYAFTSYNMYWVKQSHGKSLEWIGYIDPYNGGTSYNQKFKGKATLTVDKSSSTAYMHLNSLTSEDSAVYYCAREGGNYEAWFAYWGQGTLVTVSA VL: QIVLTQSPALMSASPGEKVTMTCSASSSVSYMYWYQQKPRSSPKPWIYLTSYLASGVPARFSGSGSGTSYSLTISSMEAEDAATYYCQQWSSYPLTFGAGTKLELKR
91.7
